- assayMethodText: soluble on expression in E. coli; label from the status in PepcDB or PDB records
metricName: soluble on expression in E. coli

sequenceCode	soluble on expression in E. coli
MGSDKIHHHHHHMKCILYKKALPLILLSCLLLGACGNSKNDSVSKEPLSHTSTEKGTWDSAPKVLTPTADGTQTYTCDVASIDASNSGSGYIIVNYHGSNQKVKLQITGPDSVTYTFDLHGGNEVFPLVASSGSYTVTVFENVEGTQYATVLSQVISVSITDEFGPYLYPNQYVNFTADSPAVKEGSSLAYYCSSDTEVVESVYNYIISNFKYDYDKAKNVKSGYLPDVDKVFTENTGICFDYAAVMATMLRTQAIPTRLEVGYAGEEYHAWISTYIKDKGWINGIIEFDGTSWNMLDPTFASTSDSPKKFIAQKSDYITKYVY	not soluble
MGSDKIHHHHHHGKEEEGPIPTDRQVPIGVMEASLSTRVSTRGVINTDIYKLGIFRTNANGYPPQYDAPYSYDGAAGWTATTEILVDHRSASLYAYYPYQSVSFADNTTKAILVAQIYDAAKDMCYGSATSADGSGMINNDHKGVRFIDMKHAYARLKLTFVRGTNVMSGRKCKIENIVLKNNSTNFYLQRQVDITTGTITEGTPAAEGYVHNPNVEIASGNQVYEYLLPPQSLTDNKLTISVTVDGEVRTVTVTAFGGTLNAGGYYHVTLTINDVQIVPSAGVTDNGYTSGDDPKNPIQNNTPSVV	not soluble
MGSDKIHHHHHHMPTINSIQTTVNGVVKIVKPFNNDIAGEQFDPHVLQTLTAFKQPAILENDLAALRSGSLTPAIADPVGDAVTVQSRNITALNRTVSVEWLTPQNVINHTVLVYFHGGAFYGGVPGNNTVLLKLVAAKSHCEILNVDYSLAPEAPAPAGILDGLAIFQYLEQRDAETMITVAGDSAGANVIMAATNLNQQLGSNRINQQLLLYPVTAPNADHAGPLWDLAAFPIIDSQRAILTNYHDLFRQLDSIMTDYYVPENFDSHSPLISPLHQENFTMTPPTTIMVGEFDPFRPQAWAYAQRLAAADTATTFIQYQGLNHAFAPLVDQYWQSQDVAQVMAAALI	not soluble
MANTPGGGALIVGIEDKTGRIIGTELDIDWLRQGIFTRIDVAPDVVAKRVLGQRVLAIYVAAAAEPIEDTSDRLRWRVGDSCRPVDLEHHHHHH	not soluble

Query: Please indicate soluble on expression in E. coli recorded for MKFEFRTLVLISLAVVVVLSGCSQSPSSGGVPEYSGSKVYSAPTLYSQLIGVPTEGVSVKAYTVENANAKDILSWYKEKLSDYEIVNEMSVVQMTTPQGSAEWGAILFKKGDKGVGIWAMSGSGVEGGGAVYFIVEGPIDKLTGESGEAGGAGEQLPASDQASGEEPVKRYPGSVMLSYYKDTSNPLEVSIGIDYGTEDSAEKVAHWYKQELQAEGWVLESESSDDSSIDLAFSRGKEYIDIYIIEPYEGFLTRKLTSTTGRRGCHLTTWSVERSRWRGIPAQLCWNT
Response: not soluble

---

- assayMethodText: soluble on expression in E. coli; label from the status in PepcDB or PDB records

sequenceCode	soluble on expression in E. coli
MGSDKIHHHHHHMTPSAGLGLKSQHYGDAIACDAEGLWFEVHPENYMSAGGPRLAALEAVRARRPVSLHGVGLSLAADTDPDPEHLQALKRLVDRFDPFVVSEHLAWSTHRGAHHPDLLPFPRTRAALDRICGNVARMQDALQRRVLIENPSLYLPLKGHALDEVDFLEALATRTGCGLLVDVNNVFVSAQNLGYAPETYLDALPAHAIGEIHLAGHAPDPGGSNLLIDTHGAPVAEVVWTLYARLIARIGPRPTLIERDDDIPDFAALMAERNRAVAVLASGQTAREPAHV	not soluble
MRNFKKPDVLVSKCLEHGRCRYDGQMISSDFVKSTKKYFNYVPVCPEVEIGLSIPRNSLKIVFENEKFEFVQNITNNNYTSKITQFSSDFLDSIENIDGAVLKHKSPSCGIKNVKVYTAKGNPTNQKTEGFFAKEVLYRYSNIAIEEESRLRNKRIKDHFLTKLYTIKDFKEVKESESIKNLIEFHTNNKFLFMAYNQKQKDILGNIVGNHNKNFDKIIKLYEKHLQLLLKRPSAIGSNINVLMHIFGYMSNKISKDEKLLFIDSLQRYHDELDCLCVPIILLKSWVIRFNVDYLKKQTYFEPFPQELADNSEMFKRDYWND	not soluble

---

- assayMethodText: soluble on expression in E. coli; label from the status in PepcDB or PDB records
metricName: soluble on expression in E. coli

Study these solved cases before continuing.
sequenceCode	soluble on expression in E. coli
SENLYFQGSANAVCQRCQARFSPAERIVNSNGELYHEHCFVCAQCFRPFPEGLFYEFEGRKYCEHDFQMLFA	soluble
PITDERVYESIGHYGGETVKIVRIEKARDIPLGATVRNEMDSVIISRIVKGGAAEKSGLLHEGDEVLEINGIEIRGKDVNEVFDLLSDMHGTLTFVLIPS	soluble
MKQWADDENLPMERYKNYQMIVPAFIIKDILDGKIPETFEDSKNIKMIEASWGEESYTKGHIPTSVHVNTDIIEPPPTWMLDNDDNLTKFALDYGLTKDDTVIVSSSTPMASYRLAVILRYIGVKDVRVLNGGTNSWLSAGYELEFISNPKLEHHHHHH	not soluble
MSLKRTAEEIKQEVKSLSQQALDAVKKHTHSPEGVKELLNFMSRFPERSFRNQLLIEEQFPGATACLGRAALKKEGIYIKKGEQGNKIFVRKTVKGFYEKGRGFVRETEATPEDKKRIKSGQIEVIKKPYYTIEKVFDITQTQLKPEDYPKIFPNRVFDFQLDAKGQSELQAGIQAVANNIGIQIRDMTESEEGHHHHHH	soluble

Query: Please indicate soluble on expression in E. coli recorded for MGHHHHHHSHMAFILCPLTCPGECEGSTGKLECCLCLPSQWAVLTAAPHPYRWSQEAGRVGEGKIGKTGRPRPRQNSLSSLHFWSPVVMCL
Response: not soluble

---

- assayMethodText: soluble on expression in E. coli; label from the status in PepcDB or PDB records
metricName: soluble on expression in E. coli

Study these solved cases before continuing.
sequenceCode	soluble on expression in E. coli
MSLSDFHEVRFPLDVALRGSGGPVRRTEIVTLASGQEHRNSRWADSRRRYDAGLGMRTLDALHAVLSFFEERRGRMYGFRYRDRVDYRSGPPSQAPAPIDQAIGTGDGATRVFALAKTYGGGPQAYRRTIAKPVAGSVRVAVNGVELAAGAVSCDPATGRLTFAPGAVPPPGAAITAGFEFDVPVRFDTDELSIDMAAFTAGEVPRIPLIEIVLEGHHHHHH	soluble
RWETHVYRAVKDLLVGLGFTEVLQLVLTSPRLVEAAGFSSMAVEVLNPVQQEYSVLRPTLLITLLQTLRENQHRRKPVKVFEAGNAVYLEDGEPRDEEKLALGVLDEEAGFEDVQAPLYAVLRIMGVDFEVEEASHPMFMEGRTAAVKVGGERLGYIGEVKPEVLEAFGLEYPVAAAEISLEVLARWTS	soluble
MVEMDGRKFLKLLKEEVHKAVVGKDDVIELLAIALLAEGHVMIEGVPGVAKTTIAKSFAQVLGLKFSRIQLTPDLLPADILGTVYYDQSDGLWKIKKGPIFANVVLADEINRAQPKTQSALLEAMQERQVTIEGRTFPLEKPFMVIATKNPIEFEGVYNLPEAQVDRFMLNIKIGYPTREEEVEMLRKKDRGELGEVGRIFSREQIVRMINEVKRVKTSEEVLHYLYEIVNETRKDERLIVGASPRASEHLLYASKAKAFLEGRDYVIPDDVKFLAVPVLAHRLLIKAEHEIEGIKGEDIVREILERVEVPI	soluble
MVIEMEPDTHIISALVEHKPGVLQRVAGLFTRRGFNIENITVGESETPGIARMTIIARGDDRVLEQITKQLNKLIDVIKVRDLEPAATVKRELCMVKVHAPSESERSEIIQYTNIFRGRIVDVSPDALTVEVTGDSEKIDAFLELLRNFGIKELARTGPTAMSRGSRTM	not soluble
MSLAKGIMLHEVGEQVDQYLLIKSSTKGIASNGKPFLTLMLQDQSGDIEAKLWDAKQSDEVTYAPQTIVKVVGDVHHYRGRTQLKLRNIRPVSEQENVNIDDFLETAPIPKNEMMDTITQYIFEMKNPNIQRITRFLVKKHEAEFMDYPAATKNHHEFVSGLAYHVVSMLNLAKAIADLYPSLDRDLLYAGVILHDLGKVKELSGPVSTSYTVEGNLLGHISIMVTELSKAAEELQIDSEEVLILQHLILSHHGKAEWGSPKPPMVKEAEILHYIDNLDAKMNMMDRALERVKPGEYTERVFALENRSFYKPTFHKEGGSHHHHHH	soluble
MKAQVEYIILPFKKRLDGFTYWQRELEPAIHPALKAYVKAENATGGVSSVMIFWEIARNTDHFCSDFKTDRDVRMFLTLYFWKYLCYFANIDFYTGQDKTEEILKGEAD	not soluble
MSLAAPLTVGFSQVGSESGWRAAETNVAKSEAEKRGITLKIADGQQKQENQIKAVRSFVAQGVDAIFIAPVVATGWEPVLKEAKDAEIPVFLLDRSIDVKDKSLYMTTVTADNILEGKLIGDWLVKEVNGKPCNVVELQGTVGASVAIDRKKGFAEAIRNAPNIKIIRSQSGDFTRSKGKEVMESFIKAENNGKNICMVYAHNDDMVIGAIQAIKEAGLKPGKDILTGSIDGVPDIYKAMIDGEANASVELTPNMAGPAFDALEKYKKDGTMPEKLTLTKSTLYLPDTAKEELEKKKNMGYEGHHHHHH	soluble
MKLNIKDVVLNYNIIGEGEPIIILHGYSVDHTIMFGCMENLFSDESRYKRIYVDLPGMGKSTSSDSIKTSDNMLDIILEFIMKVTKGENFLLVGESYGGYLSRGVVYKIREKVNGLFLICPAIIPDFNKRTVPEHVILAYDEKLMSKLNKEEAEEFSSMSVVQNEKIYLRFKEEVMSGIKLGNQDFLERLQREGYGFSFDVDKLPQKFDKPTLMLLGKQDASVGYKDAWNILDNYPRATFAVLDMAGHNLQIEQEDIFNLLGKEWISRTYREKDY	not soluble
MSLGMKSNEYNKGNYEAHKAYYAGTYEYGTDYDVEDDLYSLEFDDELLNDELEYLEDIGEPFYYEDLDNDFDNTLENQVEKDTYAALENKLRKYISKYNCYFGIYFVDLESGKEFGINDTEEFFAASTFKIPLNLYVYDMIRKGMLDPMTSLEYTEEDFEGGTGIIWNNESFGKTFTIKELLRLSIVYSDNVAVNMLLRCVGKANVKEYMRRLGGVVVDDGKNVSCPRDMAMYLKEVYELSENGDPWGRELVQNMINTKFYDRLPVLLPKNLKIAHKTGNYTGVVHDVGIVYAEKPYIVVVMTKNVKNGQSANKAIANISKMIYDYVVKQSGKDEGHHHHHH	soluble
MSLKGYYSNKISLEDLNKNIEDKKEQTIYFYQTSCVHCQKVSPIVVPLAKDLNVDMKVIDIENLNEPWDKYNIQGTPTIIHFKDGKEVSRISGEQSKDKFKEWFEQTKKEGHHHHHH	soluble

Query: Please indicate soluble on expression in E. coli recorded for MTATEPTEKILPSPDYVQSLARGLAVIRCFDHRNQRRTLSDVARATDLTRATARRFLLTLVELGYVATDGSAFWLTPRVLELGYSYLSSLSLPEVAQPHLEKLSHKVHESSSVSILDGADIVYVARVPVSRIMTVGITIGTRLPAYATSMGRVLLAGLPDDELDAYLEKLDIQRLTERTITARDELKAAILAVRADGICVLDQELEAGLRSMAAPIRGASGLTVAAVNISTPAARYSLEDLHSDLIPSLRVTATDIEQDLATVNR
Response: soluble

Query: Please indicate soluble on expression in E. coli recorded for MGSDKIHHHHHHMLIEEIMKRNVVTIHEQTTIKEAYQTMILEKFRHLPVITKSKDVIGIVTDQDIRDASPSIFHQDEHQEDLQKPVSSIMTKDVITVHPLNSVAETARLLYENRISCLPVTEGEQLVGIVTDTDVLHTLVELMGAHQPSSQIYVRVENKAGQLADVAAIMKQRQMNIASVLVYPHREDERYKILAFRIQSMDPRGTISDLQSKGYHVLWPNIPGIAT
Response: not soluble
